Every entry's value here was drawn from PubChem BioAssay (EPA / NIEHS).

- assaySummary: STM_H9_NormalizedViability: Cytotoxicity Assessment at 120 hours in the Stemina devTOX quickPredict H9 human embryonic stem cell (hESC)-based Assay (AID 2283784)
Results filed as inconclusive are left out. Activity calls are given as the source filed them. The calls were made as follows: active = hit-call score of the fitted dose curve at least 0.9, where 1 is the maximum; inconclusive = response in the unintended direction; inactive = score below 0.9.
Answer with one of the outcomes active, inactive

Reference set, count: 3
[[record]]
compound = "O=C(Nc1ccccc1)Nc1cnns1"
grouplabel = "inactive"

[[record]]
compound = "CCC(C)Nc1c([N+](=O)[O-])cc(C(C)(C)C)cc1[N+](=O)[O-] (stereo not drawn)"
grouplabel = "inactive"

[[record]]
compound = "Oc1cc(Cl)ccc1Oc1ccc(Cl)cc1Cl"
grouplabel = "active"


Let's switch to this compound now.
Please share the test call associated with CC(C)(C)C(O)/C(=C\c1ccc(Cl)cc1Cl)n1cncn1 (stereo not drawn) . active
